Test system: Bacillus subtilis
protocol_notes: Antimicrobial activity against Bacillus subtilis C971 by broth microdilution method
Type: functional
Decide using MIC alone. Strictly below 20 µg/mL: Fulfilled. Equal to or above 20 µg/mL: Not fulfilled.

chemical_structure: Cc1cc(O)c2c(c1)[C@@H]1OC(=O)[C@H]([C@H](C)O)N1C1=C2C(=O)c2cccc(O[C@H]3C[C@@H](O)[C@@H](O)[C@H](C)O3)c2C1=O
qualitative_label: Fulfilled
--
chemical_structure: Cc1cc(O)c2c(c1)[C@@H]1OC(=O)CN1C1=C2C(=O)c2cccc(O[C@H]3C[C@@H](O)[C@@H](O)[C@H](C)O3)c2C1=O
qualitative_label: Not fulfilled
--
chemical_structure: Cc1cc(O)c2c(c1)[C@@H]1OC(=O)[C@H](CC(C)C)N1C1=C2C(=O)c2cccc(O[C@H]3C[C@@H](O)[C@@H](O)[C@H](C)O3)c2C1=O
qualitative_label: Fulfilled
--
chemical_structure: Cc1cc(O)c2c(c1)[C@@H]1NC(=O)C[C@@H](C(=O)O)N1C1=C2C(=O)c2cccc(O[C@H]3C[C@@H](O)[C@@H](O)[C@H](C)O3)c2C1=O
qualitative_label: Not fulfilled
--
chemical_structure: CC[C@H](C)[C@H]1C(=O)O[C@H]2c3cc(C)cc(O)c3C3=C(C(=O)c4c(O[C@H]5C[C@@H](O)[C@@H](O)[C@H](C)O5)cccc4C3=O)N12
qualitative_label: Fulfilled
--
chemical_structure: CC[C@H]1OC(=O)[C@H](C)[C@@H](O[C@H]2C[C@@](C)(OC)[C@@H](O)[C@H](C)O2)[C@H](C)[C@@H](O[C@@H]2O[C@H](C)C[C@H](N(C)C)[C@H]2O)[C@](C)(O)C[C@@H](C)C(=O)[C@H](C)[C@@H](O)[C@]1(C)O
qualitative_label: Fulfilled
--
chemical_structure: CSCC[C@@H]1C(=O)O[C@H]2c3cc(C)cc(O)c3C3=C(C(=O)c4c(O[C@H]5C[C@@H](O)[C@@H](O)[C@H](C)O5)cccc4C3=O)N12
qualitative_label: Fulfilled
--
chemical_structure: Cc1cc(O)c2c(c1)[C@@H]1OC(=O)[C@@H]([C@H](C)O)N1C1=C2C(=O)c2cccc(O[C@H]3C[C@@H](O)[C@@H](O)[C@H](C)O3)c2C1=O
qualitative_label: Not fulfilled
--
chemical_structure: Cc1cc(O)c2c(c1)[C@@H]1OC(=O)[C@H](Cc3ccccc3)N1C1=C2C(=O)c2cccc(O[C@H]3C[C@@H](O)[C@@H](O)[C@H](C)O3)c2C1=O
qualitative_label: Fulfilled
--
chemical_structure: Cc1cc(O)c2c(c1)[C@@H]1OC(=O)[C@@H](CO)N1C1=C2C(=O)c2cccc(O[C@H]3C[C@@H](O)[C@@H](O)[C@H](C)O3)c2C1=O
qualitative_label: Fulfilled
--
chemical_structure: Cc1cc(O)c2c(c1)[C@@H]1OC(=O)[C@H](Cc3ccc(O)cc3)N1C1=C2C(=O)c2cccc(O[C@H]3C[C@@H](O)[C@@H](O)[C@H](C)O3)c2C1=O
qualitative_label: Fulfilled
--
chemical_structure: Cc1cc(O)c2c(c1)[C@@H]1OC(=O)[C@H](CO)N1C1=C2C(=O)c2cccc(O[C@H]3C[C@@H](O)[C@@H](O)[C@H](C)O3)c2C1=O
qualitative_label: Fulfilled
